experiment: Quantitative highthroughput screen to assess conditional lethalithy of NOMO1 cells grown in RPMI1640 with untreated serum (RPMI+s) (AID 1963876); details: NOMO1 AML cells in RPMI+serum, CellTiter-Glo viability, 48 h; series mostly up to 45.8 µM; further: nearly all actives have a fitted effect of over 35% in size
Records with an inconclusive call do not appear. The source made the active and inactive calls. The call rests on the fitted dose curve; in most records, active means well fitted cell-killing curve with a large enough effect; inconclusive means small, poorly fitted or top-dose-only effect; inactive means flat fitted curve, though single readings scatter.
Write down the outcome that applies. Available outcomes: active, inactive

Illustrative cases are given below, each with its answer.
* C=C1C(=O)OC2C=C(C)CCC=C(C)CCC12 (configuration not stated) | inactive
* O=C(O)c1ccc(O)c2ncc(N3CCOCC3)cc12 | inactive
* NC[C@H](O)c1ccc(O)c(O)c1 | inactive
* C=CC(=O)Nc1cccc(Nc2nc(NC3CCC(N(C)C)CC3)nc3c2ncn3C(C)C)c1 (configuration not stated) | active
* COc1cc(O)c2c(c1)C1OC1C[C@H](O)[C@H](O)C(=O)C=CC[C@H](C)OC2=O (some centres not stated) | active

Call for entry `C=CCc1cc(OC)c(O)c(C(=O)NCCO)c1` :
inactive

Kindly provide the recorded test outcome for the following molecule: `C=C(C)[C@@H]1CC[C@]2(C(=O)O)CC[C@]3(C)[C@H](CC[C@@H]4[C@@]5(C)CC[C@H](O)C(C)(C)[C@@H]5CC[C@]43C)[C@@H]12`
inactive

What did the test return for `Cc1cc2c(F)c(Oc3ncnn4cc(OC[C@@H](C)O)c(C)c34)ccc2[nH]1` ?
inactive

Fill in: this test's call for `Fc1ccc(Cl)cc1-c1nc(Nc2ccncc2)c2nccnc2n1` is ___
inactive

Assay outcome for `O=C(C=Cc1ccc(O)cc1)c1ccc(O)cc1O` : what was it?
inactive

Hi team, can someone confirm the assay call for `CC(C)(C)c1cc(C(=O)O)c(NC(=O)Nc2ccc3[nH]ncc3c2)s1` ?
inactive

---

assay: Quantitative highthroughput screen to assess conditional lethalithy of NOMO1 cells grown in Human Plasma-Like Medium with dialyzed fetal bovine serum (HPLM+ds) (AID 1963878); conditions: NOMO1 AML cells in HPLM+ds, CellTiter-Glo viability, 48 h; series mostly up to 45.8 µM; further: nearly all actives have a fitted effect of over 35% in size; further: potency means the concentration at half of the fitted maximal effect
Inconclusive results are not listed. Active and inactive are the calls of the source. Calls come from the whole dose curve; as a rule, active = well fitted cell-killing curve with a large enough effect; inconclusive = small, poorly fitted or top-dose-only effect, or effect the other way; inactive = no such curve, though single readings can be large or run the other way.
Measure Name: Potency

* CCC[C@@H](NC(=O)[C@@H]1[C@H]2CCC[C@@H]2CN1C(=O)[C@@H](NC(=O)[C@@H](NC(=O)c1cnccn1)C1CCCCC1)C(C)(C)C)C(=O)C(=O)NC1CC1 | inactive
* Cc1cnc(Nc2cccc(CN3CCOCC3)c2)nc1Nc1cccc(S(=O)(=O)NC(C)(C)C)c1 | inactive
* O=C(Nc1ccccc1Br)N[C@@H]1CCN(c2ccc(C(F)(F)F)cn2)C1 | inactive
* OCc1ccc(-c2nn(Cc3ccccc3)c3ccccc23)o1 | 16.6 µM (active)
* CC(C)(C)c1nc(-c2cccc(NS(=O)(=O)c3c(F)cccc3F)c2F)c(-c2ccnc(N)n2)s1 | 2.96 µM (active)
* NC(CO)C(=O)NNCc1ccc(O)c(O)c1O (centres undefined) | inactive
* O=c1ccn([C@@H]2O[C@H](CO)[C@H](O)[C@H]2O)c(=O)[nH]1 | inactive
* CC1(C)Cc2c(-c3ccccc3)c(-c3ccc(Cl)cc3)c(CC(=O)O)n2C1 | inactive

We now examine a further compound.
Give me measured Potency, please, for this compound: `CC(=O)Nc1ccc([C@H](C)C(=O)Nc2ncc(C(C)C)s2)cc1`
7.43 µM (active)
